test system: DU-145; experiment: Tested in vitro for cytotoxicity against human tumor cell line DU-145 (prostate); type: functional
Property label: GI50 (nM)
The reply should be a number in nM, with the unit left off.

stdin: Lab request: please report GI50 under test system DU-145 for CCc1c2c(nc3cccc(OC)c13)-c1cc3c(c(=O)n1C2OCCOC)COC(=O)[C@]3(O)CC (some centres not stated)
stdout: 1140

stdin: Lab note: need GI50 for "CC[C@@]1(O)C(=O)OCc2c1cc1n(c2=O)Cc2cc3c(CN(C)C)c(O)ccc3nc2-1" on DU-145, anyone have it?
stdout: 40

stdin: Given the entry CCc1c2c(nc3cccc(OC)c13)-c1cc3c(c(=O)n1C2OCCO)COC(=O)[C@]3(O)CC (some centres not stated) , what GI50 was observed with DU-145?
stdout: 5020

stdin: Enter reported GI50 observed with DU-145 for CCc1c2c(nc3cccc(OC)c13)-c1cc3c(c(=O)n1C2OCCF)COC(=O)[C@]3(O)CC (some centres not stated)
stdout: 790

stdin: Write down the reported GI50 of CCc1c2c(nc3cccc(OC)c13)-c1cc3c(c(=O)n1C2OCC(F)(F)F)COC(=O)[C@]3(O)CC (some centres not stated) , test system: DU-145.
stdout: 3900

stdin: Param readout = GI50; param system = DU-145; param query = CC[C@@]1(O)C(=O)OCc2c1cc1n(c2=O)C(OCCO)c2cc3c([N+](=O)[O-])cccc3nc2-1 (some centres not stated) ; response: value
stdout: 4130

stdin: Please state recorded GI50 (tested on DU-145) of CCc1c2c(nc3ccc(O)cc13)-c1cc3c(c(=O)n1C2OCCF)COC(=O)[C@]3(O)CC (some centres not stated)
stdout: 1000

* * *

system: ACHN; test: Tested in vitro for cytotoxicity against human tumor cell line ACHN (renal).; format: functional
For each record, check the reported GI50: if it is below 600 nM write 1 (yes), else write 0 (no).

stdin: Lab note: GI50 threshold 600 nM. Does this compound come in strictly under it? CC[C@@]1(O)C(=O)OCc2c1cc1n(c2=O)C(OCCO)c2cc3cc(O)ccc3nc2-1 (some centres not stated)
stdout: 0 (no)

stdin: Does the reported GI50 of "CC[C@@]1(O)C(=O)OCc2c1cc1n(c2=O)Cc2cc3c(CN(C)C)c(O)ccc3nc2-1" stay below 600 nM?
stdout: 1 (yes)

stdin: Consider the compound CC[C@@]1(O)C(=O)OCc2c1cc1n(c2=O)C(OCCF)c2cc3c([N+](=O)[O-])cccc3nc2-1 (some centres not stated) . Is its GI50 strictly less than 600 nM?
stdout: 1 (yes)

New cases:
stdin: GI50 under 600 nM? Item: CCc1c2c(nc3cccc(OC)c13)-c1cc3c(c(=O)n1C2OCCF)COC(=O)[C@]3(O)CC (some centres not stated)
stdout: 0 (no)

stdin: Dear reviewer, please state whether CCc1c2c(nc3ccc(O)cc13)-c1cc3c(c(=O)n1C2OCC(F)(F)F)COC(=O)[C@]3(O)CC (some centres not stated) has GI50 strictly beneath 600 nM.
stdout: 1 (yes)

stdin: Determine whether this compound shows GI50 lower than 600 nM (ties excluded): CCc1c2c(nc3cccc(OC)c13)-c1cc3c(c(=O)n1C2OCC(F)(F)F)COC(=O)[C@]3(O)CC (some centres not stated)
stdout: 0 (no)

* * *

tested on: HOP-62; assay: Tested in vitro for cytotoxicity against human tumor cell line HOP62 (lung); format: functional
Please note: GI50 exactly at 2 µM is NO. Only values below 2 µM get YES.

stdin: Please determine if CC[C@@]1(O)C(=O)OCc2c1cc1n(c2=O)C(OCCO)c2cc3cc(O)ccc3nc2-1 (stereo partly drawn) is below 2 µM in terms of GI50.
stdout: NO

stdin: Determine if CCc1c2c(nc3cccc(OC)c13)-c1cc3c(c(=O)n1C2OCCF)COC(=O)[C@]3(O)CC (stereo partly drawn) shows GI50 strictly lower than 2 µM.
stdout: YES

stdin: Regarding CC[C@@]1(O)C(=O)OCc2c1cc1n(c2=O)C(OCCF)c2cc3c([N+](=O)[O-])cccc3nc2-1 (stereo partly drawn) , kindly confirm whether its GI50 is beneath 2 µM.
stdout: YES

stdin: Just wondering, is GI50 of CCc1c2c(nc3cccc(OC)c13)-c1cc3c(c(=O)n1C2OCCO)COC(=O)[C@]3(O)CC (stereo partly drawn) below 2 µM?
stdout: NO

# next compound below
stdin: Does the reported GI50 of the following compound sit strictly below 2 µM? CC[C@@]1(O)C(=O)OCc2c1cc1n(c2=O)Cc2cc3c(CN(C)C)c(O)ccc3nc2-1 [TOPOTECAN]
stdout: YES

* * *

tested on: ACHN; experiment: Tested in vitro for cytotoxicity against human tumor cell line ACHN (renal).; assay type: functional
Property label: log10 GI50 (log10 of the value in nM)
Record value = log10 of GI50 given in nM.

stdin: API: value(readout= log10 GI50, system= ACHN, query= CC[C@@]1(O)C(=O)OCc2c1cc1n(c2=O)C(OCC(F)(F)F)c2cc3c([N+](=O)[O-])cccc3nc2-1 (stereo partly drawn) )
stdout: 1.30

Below: the item to evaluate.
stdin: log10 GI50 of CC[C@@]1(O)C(=O)OCc2c1cc1n(c2=O)C(OCCOC)c2cc3cc(O)ccc3nc2-1 (stereo partly drawn) on ACHN?
stdout: 3.08

* * *

test system: HOP-62; test: Tested in vitro for cytotoxicity against human tumor cell line HOP62 (lung); type: functional
We begin with a simple list: items and their reported GI50.
Write the number in µM without appending the unit.

Recorded GI50, per entry:
stdin: Entry under review: CC[C@@]1(O)C(=O)OCc2c1cc1n(c2=O)C(OCCOC)c2cc3cc(O)ccc3nc2-1 (stereo partly drawn) . Reported GI50?
stdout: 4

stdin: Consider the compound CCc1c2c(nc3ccc(O)cc13)-c1cc3c(c(=O)n1C2OCC(F)(F)F)COC(=O)[C@]3(O)CC (stereo partly drawn) and give its measured GI50.
stdout: 2

stdin: For CCc1c2c(nc3ccc(O)cc13)-c1cc3c(c(=O)n1C2OCCF)COC(=O)[C@]3(O)CC (stereo partly drawn) , what is its reported GI50?
stdout: 25

stdin: Entry CC[C@@]1(O)C(=O)OCc2c1cc1n(c2=O)C(OCCF)c2cc3cc(O)ccc3nc2-1 (stereo partly drawn) : reported GI50 = ?
stdout: 10

stdin: For the compound shown here, CC[C@@]1(O)C(=O)OCc2c1cc1n(c2=O)C(OCCO)c2cc3c([N+](=O)[O-])cccc3nc2-1 (stereo partly drawn) , give the reported GI50.
stdout: 2.45

stdin: Request the reported GI50 associated with CC[C@@]1(O)C(=O)OCc2c1cc1n(c2=O)C(OCCOC)c2cc3c([N+](=O)[O-])cccc3nc2-1 (stereo partly drawn)
stdout: 0.4

stdin: Can you look up the measured GI50 of CC[C@@]1(O)C(=O)OCc2c1cc1n(c2=O)C(OCC(F)(F)F)c2cc3cc(O)ccc3nc2-1 (stereo partly drawn) for me?
stdout: 0.06

Field: next compound
stdin: # query: GI50 of entry CCc1c2c(nc3cccc(OC)c13)-c1cc3c(c(=O)n1C2OCC(F)(F)F)COC(=O)[C@]3(O)CC (stereo partly drawn)
stdout: 1.58

* * *

system: NCI/ADR-RES; test: Tested in vitro for cytotoxicity against human tumor cell line MCF-7/ADR (breast); format: functional
Overview of reported GI50 across a group of compounds:
I only need the number, in nM, no unit after it.

The cases that follow already have their GI50 on record.
stdin: Recorded GI50 of CCc1c2c(nc3ccc(O)cc13)-c1cc3c(c(=O)n1C2OCC(F)(F)F)COC(=O)[C@]3(O)CC (stereo not given in full) , please.
stdout: 400

stdin: Value lookup for GI50; key = CC[C@@]1(O)C(=O)OCc2c1cc1n(c2=O)C(OCC(F)(F)F)c2cc3cc(O)ccc3nc2-1 (stereo not given in full)
stdout: 200

More entries:
stdin: Value lookup for GI50; key = CC[C@@]1(O)C(=O)OCc2c1cc1n(c2=O)C(OCC(F)(F)F)c2cc3c([N+](=O)[O-])cccc3nc2-1 (stereo not given in full)
stdout: 70

stdin: So what does the record say about GI50 for CCc1c2c(nc3cccc(OC)c13)-c1cc3c(c(=O)n1C2OCC(F)(F)F)COC(=O)[C@]3(O)CC (stereo not given in full) ?
stdout: 1840

stdin: Would you kindly share the measured GI50 for CCc1c2c(nc3cccc(OC)c13)-c1cc3c(c(=O)n1C2OCCF)COC(=O)[C@]3(O)CC (stereo not given in full) ?
stdout: 1990

* * *

test system: HOP-62; assay: Tested in vitro for cytotoxicity against human tumor cell line HOP62 (lung); assay type: functional
Property label: GI50 (nM)
Reply with just the number (in nM).

Known GI50 results, listed for orientation:
stdin: Query: GI50; subject: CCc1c2c(nc3cccc(OC)c13)-c1cc3c(c(=O)n1C2OCCOC)COC(=O)[C@]3(O)CC (stereo partly drawn)
stdout: 660

stdin: Would you kindly share the measured GI50 for CC[C@@]1(O)C(=O)OCc2c1cc1n(c2=O)C(OCC(F)(F)F)c2cc3c([N+](=O)[O-])cccc3nc2-1 (stereo partly drawn) ?
stdout: 500

New cases:
stdin: Dear colleague, I am looking for the recorded GI50 of the following compound: CCc1c2c(nc3ccc(O)cc13)-c1cc3c(c(=O)n1C2OCCOC)COC(=O)[C@]3(O)CC (stereo partly drawn)
stdout: 20000
